Where do these numbers come from? They come from patent US20250135039A1.

Test system: U251 human glioblastoma cell line
Assay: in vitro FM-HCR assay of MGMT activity (mPlum O^6MeG reporter plasmid)
Assay type: cell-based
Settings: DMSO condition; relative to wild-type MGMT in same condition
observation.type: MGMT activity (% of WT) DMSO

Some solved cases for reference:
# molecule, MGMT activity (% of WT) DMSO
data = [
    ("Y158F: MGMT polypeptide with mutation Y158F (protein) MDKDCEMKRTTLDSPLGKLELSGCEQGLHEIKLLGKGTSAADAVEVPAPAAVLGGPEPLMQCTAWLNAYFHQPEAIEEFPVPALHHPVFQQESFTRQVLWKLLKVVKFGEVISYQQLAALAGNPKAARAVGGAMRGNPVPILIPCHRVVCSSGAVGNFSGGLAVKEWLLAHEGHRLGKPGLGGSSGLAGAWLKGAGATSGSPPAGRN", "150.0 % of WT"),
    ("P140F: MGMT polypeptide with mutation P140F (protein) MDKDCEMKRTTLDSPLGKLELSGCEQGLHEIKLLGKGTSAADAVEVPAPAAVLGGPEPLMQCTAWLNAYFHQPEAIEEFPVPALHHPVFQQESFTRQVLWKLLKVVKFGEVISYQQLAALAGNPKAARAVGGAMRGNPVFILIPCHRVVCSSGAVGNYSGGLAVKEWLLAHEGHRLGKPGLGGSSGLAGAWLKGAGATSGSPPAGRN", "73.3 % of WT"),
]

Moving on to the next molecule.
**Q:** Given the molecule G160E: MGMT polypeptide with mutation G160E (protein) MDKDCEMKRTTLDSPLGKLELSGCEQGLHEIKLLGKGTSAADAVEVPAPAAVLGGPEPLMQCTAWLNAYFHQPEAIEEFPVPALHHPVFQQESFTRQVLWKLLKVVKFGEVISYQQLAALAGNPKAARAVGGAMRGNPVPILIPCHRVVCSSGAVGNYSEGLAVKEWLLAHEGHRLGKPGLGGSSGLAGAWLKGAGATSGSPPAGRN , what is its reported MGMT activity (% of WT) DMSO?
**A:** 121.3 % of WT
